- System: colon carcinoma HT-29
- Experiment: In vitro proliferation assay (sulforhodamine B), HT-29
- Format: cell-based, human
- Condition Notes: Homo sapiens, HT-29, 24 h, 24 h
Assay Endpoint: pEC50
pEC50 field: float, defined as -log10 of concentration (mol/L).

Structure: CCN(CC)CCCNc1cc(N)nc(N(Cc2ccc(F)cc2)c2cccc(F)c2)n1
Experimental Target: colon carcinoma HT-29
pEC50: 4.69
//
Structure: COc1cccc(Nc2cc(N)nc(Nc3cccc(OC)c3)n2)c1
Experimental Target: colon carcinoma HT-29
pEC50: 4.55
//
Structure: CCN(CC)CCCNc1cc(N)nc(N(Cc2ccc(F)cc2)c2cccc(OC)c2)n1
Experimental Target: colon carcinoma HT-29
pEC50: 4.46

Let me know recorded pEC50 for CCN(CC)CCCNc1cc(N)nc(N(Cc2ccc(F)cc2)c2cccc(Cl)c2)n1 , thanks.
4.99

Let me know recorded pEC50 for CCN(CC)CCCNc1cc(N)nc(N(Cc2ccc(F)cc2)c2cccc([N+](=O)[O-])c2)n1 , thanks.
4.60

###

- Test system: tongue squamous cell carcinoma CAL27
- Experiment: In vitro proliferation assay (sulforhodamine B), CAL27
- Type: cell-based, human
- Condition Notes: Homo sapiens, CAL-27, 48 h, 48 h
pEC50: −log10 of the molar value.
Is pEC50 at least 5? Then 1 (yes). If not, 0 (no).

# example entries with known answers
Structure: CCN(CC)CCCNc1cc(N)nc(Nc2cccc(Cl)c2)n1
Cat: 0 (no)
//
Structure: CN1CCN(c2cc(N)nc(Nc3cccc(Cl)c3)n2)CC1
Cat: 0 (no)
//
Structure: CCN(CC)CCCNc1cc(N)nc(Nc2cccc(F)c2)n1
Cat: 0 (no)
//
Structure: CCN(CC)CCCNc1cc(N)nc(N(Cc2ccc(F)cc2)c2cccc(OC)c2)n1
Cat: 0 (no)

Check if pEC50 >= 5 (inclusive). Item: CCN(CC)CCCNc1cc(N)nc(N(Cc2ccc(F)cc2)c2cccc(F)c2)n1
1 (yes)

###

The following compounds are shown together with reported CC50 at 48 h values.
- Experiment: Cytotoxicity on normal cells (sulforhodamine B), HF
- Assay type: cell-based, human
- Condition Notes: human, human dermal fibroblast primary cultures (HF), 48 h

Compound: CCCN(CCC)c1cc(N)nc(Nc2ccc(Cl)cc2F)n1
CC50 at 48 h: 98 µM

Let me know recorded CC50 at 48 h for COc1cccc(Nc2cc(N)nc(Nc3cccc(OC)c3)n2)c1 , thanks.
65 µM

Let me know recorded CC50 at 48 h for CCN(CC)CCCNc1cc(N)nc(N(Cc2ccc(F)cc2)c2cccc([N+](=O)[O-])c2)n1 , thanks.
55.2 µM

###

- Experiment: Cytotoxicity on normal cells (sulforhodamine B), HF
- Type: cell-based, human
- Condition Notes: human, human dermal fibroblast primary cultures (HF), 48 h
The following molecules are shown together with reported CC50 at 48 h values.
Write the number in µM without appending the unit.

Below are worked cases with known answers.
Structure: CCN(CC)CCCNc1cc(N)nc(N(Cc2ccc(F)cc2)c2cccc(OC)c2)n1
CC50 at 48 h, µM: 50.3
//
Structure: CCN(CC)CCCNc1cc(N)nc(Nc2cccc([N+](=O)[O-])c2)n1
CC50 at 48 h, µM: 97
//
Structure: CCN(CC)CCCNc1cc(N)nc(N(Cc2ccc(F)cc2)c2cccc(F)c2)n1
CC50 at 48 h, µM: 54.7
//
Structure: CCN(CC)CCCNc1cc(N)nc(Nc2cccc(F)c2)n1
CC50 at 48 h, µM: 88

Now take the following molecule into account.
Let me know recorded CC50 at 48 h for CCN(CC)CCCNc1cc(N)nc(N(Cc2ccc(F)cc2)c2cccc(Cl)c2)n1 , thanks.
50.2
